METHOD: yeast display, Sf9 membrane polyspecificity reagent, FACS + sequencing; frameworks hold sequencing errors
EXPERIMENTAL READOUT: polyreactivity (PSR sort gate)

Example sequences with recorded polyreactivity (PSR sort gate):
[
  {
    "SEQUENCE CODE": "QVQLVASGGGLVQAGGSLRLSCAASGSNFAYNGMGWYRLAPGKERELVAAMSWNGGTTYYADSVKGRFTISRDKAKKNVYLQRNSLKPEDTAVYYCATDSYYFREYDYWGQGTQVTVSS",
    "polyreactivity (PSR sort gate)": "low polyreactivity"
  },
  {
    "SEQUENCE CODE": "QVQLVESGGGLVQAGGSLRLSCAASRIFRGYAMGWYRQAPGKERELVAAIDRGVSTYYADSVKGRFTISRDNAKNTVYLQMNSRKPEDTAVYYCAVEYWEPYDMDYWGQGTQVTVSS",
    "polyreactivity (PSR sort gate)": "high polyreactivity"
  },
  {
    "SEQUENCE CODE": "QVQLVESGGGLVQAGGSLRLSCAASGFTFSPYTMGWYRQAPGKEWELVATIRYDGTSTYYADSVKGRFTISRDNAKNTVFLQMNSLKPEDTEVYYCAADIWRVYSTIYYWGQGTQVTVSS",
    "polyreactivity (PSR sort gate)": "low polyreactivity"
  },
  {
    "SEQUENCE CODE": "QVQHVESGGGLVQAGGSLRLSCAASGSIFYYYAMGWYRQAPGKERELVATISSSSGSTYADSVKGRFTISRDNAKNTVYLQMNSLKPEDTAVYYCAKDYWGQGTKVTVSS",
    "polyreactivity (PSR sort gate)": "low polyreactivity"
  },
  {
    "SEQUENCE CODE": "QVQLVESGGGLVQAGGSLRLICAASGLTFKQYVMGWYRQAPGKERELVAAIHNGTSTYYADSVKGRFTISRDNAKNTVYLQMNSLKPEDTAVYYCAADGLGFNTYDYWGQGTQVTVSS",
    "polyreactivity (PSR sort gate)": "low polyreactivity"
  }
]

// each sequence listed below needs its polyreactivity (PSR sort gate)
1. QVQLVESGGGLVQAGGSLRLSCAASGLIIYSNAMGWYRQAPRKERELVAAINYSGGRTYYADSVKGRFTISRDNAKNTVYLQMNSLKPEDTAVYYCAARLYGAQRHGGYWGQGTQVTVSS
2. QVQLVESGGGLVQAGGSLRLSCAASGRIFYVYTMGWYRQAPGKERELVAAISWSGGSTHYADSVKGRFTIARDNAKNTVYLQMNSLKPEDTAVYYCNKGVVSRVAFEYWGQGTQVTVSS
3. QDQHVESGGGLVQAGGSLRLSCAASGSTIVDYVMGWYRQAPGKERELVAAIRRSDGRTYYADSVKGRFTISRDNAKNTVYLQMNSLKPEDTAVYYCADYAFYRYFFPDVLYDYWGQGTQVTVSS

1. high polyreactivity
2. low polyreactivity
3. low polyreactivity

// each sequence listed below needs its polyreactivity (PSR sort gate)
1. QVQLVESGGGLVQAGGSLRLSCAASGSTFGENDRGWSRQEPGKERELVAAITWSGGSTYYADSVKGRFTISRDNAKNTVYLQMNSLKPEDTAVYYCAADRYWIVLYDYWGQGTQVTVSS
2. QVQIVESGGGLVQAGGSLRLSCAASGSIFRSYAMGWYRQAPGKERELVAAITSSSGSTYYADSVKGRFTISRDNAKNTVYLQMNSLKPEDTAVYSCAAGSPRRYRYDYWGQGTQVTVSS
3. QVQLVESGGGLVQAGGSLRLSCAASGITFTEYAMGWYRQAPGKERELVATISYGGGITYYADSVKGRFTISRDNAKNTVYLQMNSLKPEDTAVYYCAADGLSQVQRGMDYWGQGTQVTVSS

1. low polyreactivity
2. high polyreactivity
3. low polyreactivity
